Measured Kp values are reported for all entries that follow.
Assay: Brain penetration, AUC in brain versus AUC plasma
Conditions: mouse
Reply briefly: the number, and no unit.

Look over these answered cases.
# COMPOUND, Kp
measured = [
    ("CCc1c2c(nc3ccccc13)-c1c(N)c3c(c(=O)n1C2)COC(=O)[C@]3(O)CC [TH1338]", 0.7),
    ("CC[C@@]1(O)C(=O)OCc2c1c([N+](=O)[O-])c1n(c2=O)Cc2c-1nc1ccccc1c2/C=N/OC(C)(C)C [TH1431]", 0.12),
    ("CC[C@@]1(O)C(=O)OCc2c1c(N)c1n(c2=O)Cc2cc3ccccc3nc2-1 [TH1320]", 1.15),
]

Q: Requested read-out: Kp. Entry: CCc1c2c(nc3ccccc13)-c1c([N+](=O)[O-])c3c(c(=O)n1C2)COC(=O)[C@]3(O)CC [TH1332]
Ans: 0.18
